- assay system: T1, recombinant His-tagged Can f2 (dog (Canis familiaris), UniProt O18874 19-180)
- T1 construct: also called Can f2-His; recombinant Can f2; not shown: His tag
- T1 sequence (looked up): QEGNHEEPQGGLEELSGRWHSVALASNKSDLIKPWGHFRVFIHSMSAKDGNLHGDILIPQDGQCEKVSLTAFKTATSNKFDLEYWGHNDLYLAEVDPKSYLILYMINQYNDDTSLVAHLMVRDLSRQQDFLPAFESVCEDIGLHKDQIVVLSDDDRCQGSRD
- assay protocol: ELISA, antigen coated
// values below are reported EC50
Form entry: value (µg/mL) — number only.

Field: example entries. Status: answers known.
{"binder": "SDAB22118-1-F04 (VHH, anti-Can f2 alpaca VHH; prokaryotic expression) VHH: QVQLVESGGGLVQPGGSLRLSCAYSGFTLDNNVIGWFRQAPGKEREFVAAISRSGAFTHYTESVQGRFTISRDNAKNTVYLQMNSLKPEDTAVYYCAAGAILLPTERRYDYWGQGTQVTVSS", "quantitative readout": 0.0639}
{"binder": "SDAB22118-1-D08 (VHH, anti-Can f2 alpaca VHH; prokaryotic expression) VHH: EVQLVESGGGLVQPGGSLRLSCVVSGSIFSDNAMGWYRQAPGKQREMVAIISSVGTTNNVDSVNGRFTISRDNAKNTVYLQMNSLKPEDTAVYYCKDFSAPRYWGQGTQVTVSS", "quantitative readout": 0.0486}
{"binder": "SDAB22118-1-B11 (VHH, anti-Can f2 alpaca VHH; prokaryotic expression) VHH: AVQLVESGGGLVQPGGSLRLSCAASGFTFSNYYMSWYRQAPGKEREWVAFITSTGSSTNYANSVKGRFTASRDNAKNTVYLQMNSLKPEDTAVYYCKTRLWGNDYWGKGTLVTVSS", "quantitative readout": 0.164}

Moving on to another binder below.
EC50 reading for SDAB22118-2-G01 (VHH, anti-Can f2 alpaca VHH; prokaryotic expression) VHH: AVQLVDSGGGLVQAGDSLRLSCVASGRTFSSYVMGWFRQAPGKERLIVATISKSGSLTHYADSVEGRFTISRDNAKNTVYLQMNSLEPEDTAVYYCTPVSDLTGRRLGSYWGQGTQVTVSS : 0.0736
